System: A549
Test: Cytotoxicity against human A549 cells after 96 hrs by MTT assay
Format: functional, cell-based
Conditions: A549, 96 h
assay.endpoint: IC50

smiles_structure=CC(=O)[C@@H]1CC[C@]2(C)CC[C@]3(C)[C@H](CC[C@@H]4[C@@]5(C)CC[C@H](O)C(C)(C)[C@@H]5CC[C@]43C)[C@@H]12 assay_endpoint=IC50 measured="> 10 µM"

[Q] Form: Entry = "C[C@@H](CO)[C@@H]1CC[C@]2(C)C[C@H](O)[C@]3(C)[C@H](CC[C@@H]4[C@@]5(C)CCC(=O)C(C)(C)[C@@H]5CC[C@]43C)[C@@H]12" | System = A549 | IC50 = ____
[A] > 10 µM

[Q] Also "C=C(CO)[C@@H]1CC[C@]2(C)C[C@H](O)[C@]3(C)[C@H](CC[C@@H]4[C@@]5(C)CCC(=O)C(C)(C)[C@@H]5CC[C@]43C)[C@@H]12" ?
[A] > 10 µM

Data origin: ChEMBL document CHEMBL3108727
